Origin of values: patent US8883782B2

Consider the following molecules; for each one, report its pIC50.
TARGET ENTITY: Beta Secretase enzyme (BACE) (Homo sapiens, UniProt P56817)
Sequence (P56817 46-501, species assumed): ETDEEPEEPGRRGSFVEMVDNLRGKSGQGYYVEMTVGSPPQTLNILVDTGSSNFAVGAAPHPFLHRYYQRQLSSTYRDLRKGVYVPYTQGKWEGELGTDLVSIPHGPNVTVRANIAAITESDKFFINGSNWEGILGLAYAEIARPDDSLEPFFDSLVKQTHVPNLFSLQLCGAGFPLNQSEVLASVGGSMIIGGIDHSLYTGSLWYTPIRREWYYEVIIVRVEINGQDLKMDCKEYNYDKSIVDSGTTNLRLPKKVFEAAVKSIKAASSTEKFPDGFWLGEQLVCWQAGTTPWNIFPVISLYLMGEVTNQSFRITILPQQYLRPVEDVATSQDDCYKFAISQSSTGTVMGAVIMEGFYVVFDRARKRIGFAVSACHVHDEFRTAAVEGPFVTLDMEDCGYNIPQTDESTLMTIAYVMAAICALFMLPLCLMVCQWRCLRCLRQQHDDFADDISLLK
METHOD NOTES: In vitro enzymatic BACE FRET (fluorescence resonance energy transfer) assay
Assay type: biochemical
MEASUREMENT SETUP: average IC50, enzyme assay; read-out: BACE 1 FRET assay
Method: In Vitro Enzymatic Bace Fret (Fluorescence Resonance Energy Transfer) Assay (Enzyme Assay Data in the Example Table I) The assay buffer used in this screen is 0.05 M acetate, pH 4.2, 10% DMSO final, 100 uM genapol (which is a nonionic detergent, below its Critical Micelle Concentration). […] The FRET assay is terminated with by addition of Tris buffer, which raises the pH to neutrality, and the fluorescence is determined. […]
Answers are plain numbers, as −log10 of the molar value.

Here are 7 molecules together with their reported answers.
> print(dat)
                                 mol.smiles  assay.metric  number
1  Cn1cc(-c2ccc3c(c2)[C@@]2(COC(N)=N2)c2cc(OCC4(C)COC4)c(F)cc2O3)cn1         pIC50    6.26
2  CC1(C#Cc2cnc3c(c2)[C@]2(COC(N)=N2)c2cc(-c4ccc(F)c(F)c4)ccc2O3)COC1         pIC50    8.35
3  NC1=N[C@@]2(CS1)c1cc(-c3cccnc3F)ccc1Oc1ncc(-c3cccnc3F)cc12         pIC50    8.70
4  NC1=N[C@@]2(CO1)c1cc(-c3cncc(Cl)c3)ccc1Oc1cnc(C3CCOCC3)cc12         pIC50    8.51
5  NC1=N[C@@]2(CS1)c1cc(-c3cncc(F)c3)ccc1Oc1ncc(Br)cc12         pIC50    7.63
6  NC1=N[C@@]2(CO1)c1cc(-c3cccnc3F)ccc1Oc1c(F)cc(-c3ncccn3)cc12         pIC50    8.96
7  CC1(COc2cc(F)c3c(c2)[C@]2(COC(N)=N2)c2cc(-c4cncc(Cl)c4)ccc2O3)COC1         pIC50    9.15

Please look at the following molecule next.
Reading of pIC50 for "COc1nc(Cl)cc2c1Oc1ccc(Br)cc1[C@@]21COC(N)=N1" with Beta Secretase enzyme (BACE) (Homo sapiens, UniProt P56817): 5.16

###

Consider the following molecules; for each one, report its pIC50.
System: Aβ40 in conditioned medium of cells stably expressing Amyloid Precursor Protein (APP)
METHOD NOTES: In vitro BACE cell-based assay (Aβ40 in conditioned medium, sandwich ELISA)
MEASUREMENT SETUP: Homo sapiens, HEK293, average IC50; read-out: HEK cell assay
Experimental: In Vitro BACE Cell-Based Assay The cell-based assay measures inhibition or reduction of Aβ40 in conditioned medium of test compound treated cells expressing amyloid precursor protein. Cells stably expressing Amyloid Precursor Protein (APP) were plated at a density of 40K cells/well in 96 well plates (Costar). […] The IC50 of the compound was calculated from the percent of control or percent inhibition of Aβ 40 as a function of the concentration of the test compound. […]
Answers are plain numbers, as −log10 of the molar value.

> print(dat)
                                   molecule                             target.entity  number
1  NC1=N[C@@]2(CO1)c1cc(-c3cncc(F)c3)ccc1Oc1cnc(-c3ccnc(F)c3)cc12 [Example 376]  Aβ40 in conditioned medium of cells stably expressing Amyloid Precursor Protein (APP)    7.48

Each molecule below has a recorded value; state its pIC50.
1. NC1=N[C@]2(CO1)c1cc(C3=CCOCC3)cc(F)c1Oc1ccc(-c3cccnc3)c(F)c12 [Example 1046]
2. NC1=N[C@@]2(CO1)c1cc(-c3cnccc3F)ccc1Oc1c(F)cc(C3CCOCC3)cc12 [Example 1056]
3. CC1(C)CC(c2cc(F)c3c(c2)[C@]2(COC(N)=N2)c2cc(-c4cccnc4F)ccc2O3)=CC(=O)O1 [Example 804]
4. COc1ncc(-c2cc(F)c3c(c2)[C@]2(COC(N)=N2)c2cc(-c4cccnc4F)ccc2O3)cn1 [Example 213]
5. NC1=N[C@@]2(CO1)c1cc(Oc3cccc(Cl)n3)ccc1Oc1c(F)cc(C3=CCOCC3)cc12 [Example 725]

(A)
1: 6.68; 2: 7.77; 3: 7.48; 4: 7.67; 5: 5.72
